Source listed as patent US11299478B2.

- tgt: cathepsin K (Homo sapiens)
- Sequence (P43235 115-329, species assumed): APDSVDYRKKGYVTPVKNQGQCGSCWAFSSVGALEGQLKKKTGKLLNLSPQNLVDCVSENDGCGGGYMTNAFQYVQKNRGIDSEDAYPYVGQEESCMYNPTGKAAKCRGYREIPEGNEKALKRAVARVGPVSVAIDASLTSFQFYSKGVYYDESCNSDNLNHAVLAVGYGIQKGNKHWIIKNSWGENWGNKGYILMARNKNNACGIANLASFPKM
- procedure summary: Inhibitory activity assay against cathepsin K (enzyme assay)
- Format: biochemical
- condition info: Z-Phe-Arg-AMC 10 μM, enzyme 1 nM, pH 5.5, 30 minutes
property: IC50 (nM)
Respond numerically; units are nM and should not be typed.

QUERY: # query: IC50 of entry COCc1ccc(C(F)(F)F)cc1NC(=O)NC1(c2ccnc(C#N)n2)CCCCC1
RESULT: 6.8

QUERY: # query: IC50 of entry CS(=O)(=O)c1ccc(-c2ccc(NC(=O)NC3(c4ccnc(C#N)n4)CCCCC3)cc2C(F)(F)F)cc1
RESULT: 8.3

QUERY: # query: IC50 of entry COCCc1ccc(OCc2ccc(-c3ccc(NC(=O)NC4(c5ccnc(C#N)n5)CCCCC4)cc3)cc2)cc1
RESULT: 2400

QUERY: # query: IC50 of entry Cc1ccc(NC(=O)NC2(c3ccnc(C#N)n3)CCCC2)cc1C
RESULT: 83.7

QUERY: # query: IC50 of entry CS(=O)(=O)c1ccc(-c2ccc(NC(=O)NC3(c4ccnc(C#N)n4)CCCCC3)cc2C(F)(F)F)cc1C(F)(F)F
RESULT: 21.2

QUERY: # query: IC50 of entry N#Cc1nccc(C2(NC(=O)OCc3cccc(Cl)c3)CCCCC2)n1
RESULT: 277

QUERY: # query: IC50 of entry CC(=O)Nc1ccc(-c2ccc(NC(=O)NC3(c4ccnc(C#N)n4)CCCCC3)cc2F)cc1
RESULT: 6.2

QUERY: # query: IC50 of entry CS(=O)(=O)c1ccc(-c2ccc(COC(=O)NC3(c4ccnc(C#N)n4)CCCC3)cc2)cc1
RESULT: 1570

QUERY: # query: IC50 of entry CNCCOc1ccc(-c2ccc(NC(=O)NC3(c4ccnc(C#N)n4)CCCCC3)cc2)cc1
RESULT: 0.1

QUERY: # query: IC50 of entry N#Cc1nccc(C2(NC(=O)Nc3ccc(-c4ccc(C(=O)NC5CC5)cc4)cc3)CCCCC2)n1
RESULT: 6.4

QUERY: # query: IC50 of entry N#Cc1nccc(C2(NC(=O)Nc3cc(C(F)(F)F)c(F)cc3F)CCCCC2)n1
RESULT: 3.1

QUERY: # query: IC50 of entry N#Cc1nccc(C2(NC(=O)Nc3cccc(C(F)(F)F)c3)CCCC2)n1
RESULT: 21.6

QUERY: # query: IC50 of entry CC(=O)NCc1ccc(-c2ccc(NC(=O)NC3(c4ccnc(C#N)n4)CCCCC3)cc2F)cc1
RESULT: 5.7

QUERY: # query: IC50 of entry CS(=O)(=O)c1ccc(-c2ccc(NC(=O)NC3(c4ccnc(C#N)n4)CCCCC3)cc2)cc1F
RESULT: 39.5

QUERY: # query: IC50 of entry N#Cc1nccc(C2(NC(=O)Nc3ccc(-c4ccc(C(=O)NCCn5ccnc5)cc4)cc3)CCCCC2)n1
RESULT: 0.1

QUERY: # query: IC50 of entry Cc1ccccc1CNC(=O)NC1(c2ccnc(C#N)n2)CCCC1
RESULT: 13.2

QUERY: # query: IC50 of entry CC(C)N1CCN(c2ccc(NC(=O)NC3(c4ccnc(C#N)n4)CCCCC3)cc2)CC1
RESULT: 17.9

====

Please respond with reported IC50 for every item in the list.
- tgt: cathepsin S (Homo sapiens)
- procedure summary: Inhibitory activity assay against cathepsin S (enzyme assay)
- Assay type: biochemical
- condition info: Z-Phe-Arg-AMC 70 μM, enzyme 3 nM, pH 6.5, 45 minutes

QUERY: # query: IC50 of entry N#Cc1nccc(C2(NC(=O)Nc3ccc(-c4ccc(F)cc4)cc3)CCCCC2)n1
RESULT: > 10000 nM

QUERY: # query: IC50 of entry N#Cc1nccc(C2(NC(=O)OCc3ccccc3F)CCCCC2)n1
RESULT: 8320 nM

QUERY: # query: IC50 of entry N#Cc1nccc(C2(NC(=O)Nc3ccc(-c4ccc(C(F)(F)F)cc4)cc3)CCCCC2)n1
RESULT: > 10000 nM

QUERY: # query: IC50 of entry N#Cc1nccc(C2(NC(=O)NCc3ccc4c(c3)OCO4)CCCC2)n1
RESULT: > 10000 nM

QUERY: # query: IC50 of entry N#Cc1nccc(C2(NC(=O)Nc3ccc(Br)cc3)CCCCC2)n1
RESULT: > 10000 nM

QUERY: # query: IC50 of entry N#Cc1nccc(C2(NC(=O)OCc3cccc(F)c3)CCCCC2)n1
RESULT: 8600 nM

QUERY: # query: IC50 of entry CN1CCN(c2ccc(NC(=O)NC3(c4ccnc(C#N)n4)CCCCC3)cc2)CC1
RESULT: ≥ 10000 nM

QUERY: # query: IC50 of entry CS(=O)(=O)c1ccc(-c2ccc(NC(=O)NC3(c4ccnc(C#N)n4)CCCCC3)cc2)cc1
RESULT: > 10000 nM

QUERY: # query: IC50 of entry N#Cc1nccc(C2(NC(=O)Nc3cc(F)ccc3F)CCCC2)n1
RESULT: > 10000 nM

====

- tgt: cathepsin S (Homo sapiens, UniProt P25774)
- Sequence (P25774 115-331, species assumed): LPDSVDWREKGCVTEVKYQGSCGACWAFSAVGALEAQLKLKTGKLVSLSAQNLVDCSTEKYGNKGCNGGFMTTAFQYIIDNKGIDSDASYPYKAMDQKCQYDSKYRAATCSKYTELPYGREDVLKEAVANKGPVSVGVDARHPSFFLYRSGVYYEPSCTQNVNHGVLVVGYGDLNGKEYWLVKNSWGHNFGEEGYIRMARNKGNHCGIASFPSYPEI
- procedure summary: Inhibitory activity assay against cathepsin S (enzyme assay)
- Format: biochemical
- condition info: Z-Phe-Arg-AMC 70 μM, enzyme 3 nM, pH 6.5, 45 minutes
property: IC50

QUERY: # query: IC50 of entry CN(C(=O)NC1(c2ccnc(C#N)n2)CCCCC1)c1ccccc1
RESULT: 3540 nM

QUERY: # query: IC50 of entry N#Cc1nccc(C2(NC(=O)OCc3ccc(-c4ccc(N5CCOCC5)cc4)cc3)CCCC2)n1
RESULT: > 10000 nM

QUERY: # query: IC50 of entry N#Cc1nccc(C2(NC(=O)OCCc3ccccc3)CCCC2)n1
RESULT: > 10000 nM

QUERY: # query: IC50 of entry Cc1ccc(CNC(=O)NC2(c3ccnc(C#N)n3)CCCC2)cc1
RESULT: > 10000 nM

QUERY: # query: IC50 of entry CN(C)C1CCN(c2ccc(NC(=O)NC3(c4ccnc(C#N)n4)CCCCC3)cc2)CC1
RESULT: > 10000 nM

QUERY: # query: IC50 of entry CC(C)(C)N1CCN(c2ccc(NC(=O)NC3(c4ccnc(C#N)n4)CCCCC3)cc2)CC1
RESULT: > 10000 nM

QUERY: # query: IC50 of entry N#Cc1nccc(C2(NC(=O)OCc3cccc(C(F)(F)F)c3)CCCCC2)n1
RESULT: > 10000 nM

QUERY: # query: IC50 of entry CS(=O)(=O)c1ccc(-c2cccc(COC(=O)NC3(c4ccnc(C#N)n4)CCCC3)c2)cc1
RESULT: 9450 nM

QUERY: # query: IC50 of entry N#Cc1nccc(C2(NC(=O)Nc3ccc(-c4ccc(S(=O)(=O)NC5CC5)cc4)cc3)CCCCC2)n1
RESULT: 8580 nM

QUERY: # query: IC50 of entry CC(C)N1CCN(c2ccc(NC(=O)NC3(c4ccnc(C#N)n4)CCCCC3)cc2)CC1
RESULT: > 10000 nM

QUERY: # query: IC50 of entry Cc1ccc(NC(=O)NC2(c3ccnc(C#N)n3)CCCC2)cc1C
RESULT: > 10000 nM

QUERY: # query: IC50 of entry N#Cc1nccc(C2(NC(=O)Nc3ccc(-c4ccc(S(=O)(=O)C(F)(F)F)cc4)cc3)CCCCC2)n1
RESULT: 3600 nM

QUERY: # query: IC50 of entry N#Cc1nccc(C2(NC(=O)Nc3cc(C(F)(F)F)ccc3CO)CCCCC2)n1
RESULT: 9850 nM

QUERY: # query: IC50 of entry CC(C)N1CCN(c2ccc(-c3ccc(CNC(=O)NC4(c5ccnc(C#N)n5)CCCCC4)cc3)cc2)CC1
RESULT: > 10000 nM

QUERY: # query: IC50 of entry Cc1ccc(C)c(NC(=O)NC2(c3ccnc(C#N)n3)CCCCC2)c1
RESULT: 6260 nM

QUERY: # query: IC50 of entry N#Cc1nccc(C2(NC(=O)Nc3ccc4ccccc4c3)CCCC2)n1
RESULT: > 10000 nM

QUERY: # query: IC50 of entry CC(=O)Nc1ccc(-c2ccc(NC(=O)NC3(c4ccnc(C#N)n4)CCCCC3)cc2)cc1
RESULT: > 10000 nM

====

- tgt: UniProt:P07711
- Sequence (P07711 114-333, species assumed): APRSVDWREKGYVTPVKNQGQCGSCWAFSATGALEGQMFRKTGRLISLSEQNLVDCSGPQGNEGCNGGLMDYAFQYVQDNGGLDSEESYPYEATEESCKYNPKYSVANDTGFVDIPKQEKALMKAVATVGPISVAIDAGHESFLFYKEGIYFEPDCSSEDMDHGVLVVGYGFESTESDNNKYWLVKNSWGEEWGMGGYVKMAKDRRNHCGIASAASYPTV
- procedure summary: Inhibitory activity assay against cathepsin L (enzyme assay)
- Type: biochemical
- condition info: Z-Phe-Arg-AMC 2 μM, enzyme 3 nM, pH 5.5, 30 minutes
- Protocol: In order to measure the enzyme activity of cathepsin L, a buffer solution (pH 5.5) consisting of 50 mM MES, 2.5 mM DTT, 2.5 mM EDTA, 0.005% Polysorbate 20, and 10% DMSO was prepared. […] After reacting the mixture of substrate, test material, and enzyme for 30 minutes, the enzyme activity was measured with the EnVision (Perkin Elmer) microplate reader at an absorption wavelength of 340 nm and an emission wavelength of 460 nm. […]
Please respond with reported IC50 for every item in the list.
Respond numerically; units are nM and should not be typed.

QUERY: Request: IC50, test system UniProt:P07711, entry COc1ccccc1COC(=O)NC1(c2ccnc(C#N)n2)CCCCC1
RESULT: 2860

QUERY: Request: IC50, test system UniProt:P07711, entry CN(C)CCNC(=O)c1ccc(-c2ccc(NC(=O)NC3(c4ccnc(C#N)n4)CCCCC3)cc2)cc1
RESULT: 4090

QUERY: Request: IC50, test system UniProt:P07711, entry N#Cc1nccc(C2(NC(=O)Nc3ccccc3)CCCC2)n1
RESULT: 8180

QUERY: Request: IC50, test system UniProt:P07711, entry N#Cc1nccc(C2(NC(=O)Nc3cccc(Br)c3)CCCCC2)n1
RESULT: 1920
